- Study System: phosphorylation levels of ERK1/2 in AsPC-1 (homozygous KRAS-G12D) cells (Homo sapiens, UniProt P01116, G12D)
- Sequence (P01116 1-186 G12D): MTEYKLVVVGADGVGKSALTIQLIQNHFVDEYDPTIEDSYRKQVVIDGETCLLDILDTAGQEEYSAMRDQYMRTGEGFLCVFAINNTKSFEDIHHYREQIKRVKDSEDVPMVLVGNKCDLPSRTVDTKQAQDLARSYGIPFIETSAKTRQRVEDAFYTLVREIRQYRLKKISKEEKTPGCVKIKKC
- Procedure Details: Cellular phospho-ERK assay in AsPC-1 cells (Alpha Screen), assay medium without fetal bovine serum;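 further: signal taken as phospho-ERK over total ERK per well, both detected in one multiplex bead assay, EC50 from four-parameter logistic fit of dose-response curves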
- Type: cell-based
- Run Parameters: phospho-ERK AlphaScreen, 18 h
*1 amine or outer side, *2 acyl side, *3 side chain or, on linkers, in order; H or OH if unused. Where a SMILES comes first, the peptide text is derived from it. [ ]: non-standard residue; d: D form. Ala(pyrimidin-5-yl) = N[C@@H](Cc1cncnc1)C(=O)O; Leu(4,5-dehydro) = C=C(C)C[C@H](N)C(=O)O; Phe(2-F) = N[C@@H](Cc1ccccc1F)C(=O)O; X1 = O=C(C12CC(CN[*:1])(C1)C2)[*:2]; X17 = O=C([C@H](CCCCF)N[*:1])[*:2]; Ala(cPr) = N[C@@H](CC1CC1)C(=O)O; NMeF = CN[C@@H](Cc1ccccc1)C(=O)O; PhLac = O=C(O)[C@@H](O)Cc1ccccc1; X4 = O=C([C@H](CCCF)N[*:1])[*:2]; hLeu = CC(C)CC[C@H](N)C(=O)O; NMeA = CN[C@@H](C)C(=O)O; Pra = C#CC[C@H](N)C(=O)O
Reported Property: EC50 (µM)
Please respond with the number in µM and leave the unit unwritten.

IN: I'd like to know its EC50. The compound in question is C#CC[C@@H]1NC(=O)[C@H](CC2CC2)NC(=O)[C@H](Cc2cncnc2)NC(=O)[C@H](C)N(C)C(=O)[C@H](Cc2ccccc2)OC(=O)C23CC(CNC(=O)[C@H](Cc4ccccc4)N(C)C(=O)[C@H](CCC(C)C)NC1=O)(C2)C3 [compound 286] (cyclo([Ala(cPr)][Pra][hLeu][NMeF][X1][PhLac][NMeA][Ala(pyrimidin-5-yl)]))
OUT: 30.3

IN: I'd like to know its EC50. The compound in question is C=C(C)C[C@@H]1NC(=O)[C@H](CC2CC2)NC(=O)[C@H](Cc2cncnc2)NC(=O)[C@H](C)N(C)C(=O)[C@H](Cc2ccccc2)OC(=O)C23CC(CNC(=O)[C@H](Cc4ccccc4)N(C)C(=O)[C@H](CCC(C)C)NC1=O)(C2)C3 [compound 287] (cyclo([Ala(cPr)][Leu(4,5-dehydro)][hLeu][NMeF][X1][PhLac][NMeA][Ala(pyrimidin-5-yl)]))
OUT: 17.1

IN: I'd like to know its EC50. The compound in question is C[C@H]1C(=O)N[C@@H](Cc2cncnc2)C(=O)N[C@@H](CCCCF)C(=O)N[C@@H](Cc2ccccc2F)C(=O)N[C@@H](CCCCF)C(=O)N(C)[C@@H](Cc2ccccc2)C(=O)NCC23CC(C2)(C3)C(=O)O[C@@H](Cc2ccccc2)C(=O)N1C [compound 128] (cyclo([NMeA][Ala(pyrimidin-5-yl)][X17][Phe(2-F)][X17][NMeF][X1][PhLac]))
OUT: 3.72

IN: I'd like to know its EC50. The compound in question is CC(C)CC[C@@H]1NC(=O)[C@H](Cc2ccccc2F)NC(=O)[C@H](CCCF)NC(=O)[C@H](Cc2cncnc2)NC(=O)[C@H](C)N(C)C(=O)[C@H](Cc2ccccc2)OC(=O)C23CC(CNC(=O)[C@H](Cc4ccccc4)N(C)C1=O)(C2)C3 [compound 133] (cyclo([NMeA][Ala(pyrimidin-5-yl)][X4][Phe(2-F)][hLeu][NMeF][X1][PhLac]))
OUT: 2.26
